Target: HLA-A*29:02
Assay: IEDB peptide-MHC binding, purified MHC/competitive/fluorescence; filed as Kd, often an IC50 or EC50 that approximates it; bounds were set here for any values at or beyond the usual limits of such assays
Details: source organism: Homo sapiens
MEASURE NAME: Kd

Input: Which Kd is listed for MLYPRVWPY ?
Output: ≤ 0.1 nM

---

Target: HLA-B*51:01
Assay: IEDB peptide-MHC binding, purified MHC/direct/fluorescence; filed as Kd, often an IC50 or EC50 that approximates it; bounds were set here for any values at or beyond the usual limits of such assays
Conditions: source organism: Cryptosporidium parvum Iowa II
MEASURE NAME: pKd
Would you please state pKd, meaning minus log10 of the concentration in mol/L, as a bare number?

[[record]]
primary_sequence = "MPMSMPIPM"
value_observed = 5.23


Input: Which pKd is listed for LPLESCFGV ?
Output: 6.45

---

Biological target: HLA-A*29:02
Assay: IEDB peptide-MHC binding, purified MHC/direct/fluorescence; filed as Kd, often an IC50 or EC50 that approximates it; bounds were set here for any values at or beyond the usual limits of such assays
Details: source organism: Giardia lamblia ATCC 50803
Below, each entry is listed alongside its reported Kd.

Input: Which Kd is listed for MHYGYNRAN ?
Output: ≥ 20 µM

Input: Which Kd is listed for APDGFYPFK ?
Output: ≥ 20 µM

---

Molecular target: HLA-A*02:01
Assay: IEDB peptide-MHC binding, purified MHC/competitive/fluorescence; filed as Kd, often an IC50 or EC50 that approximates it; bounds were set here for any values at or beyond the usual limits of such assays
Settings: source organism: Choclo virus
pKd: −log10 of the molar value.
MEASURE NAME: pKd

Input: Which pKd is listed for HWMDATFNI ?
Output: ≤ 4.70

---

Molecular target: HLA-A*01:01
Experiment: IEDB peptide-MHC binding, purified MHC/competitive/radioactivity; filed as Kd, often an IC50 or EC50 that approximates it; bounds were set here for any values at or beyond the usual limits of such assays
Settings: source organism: Lymphocytic choriomeningitis virus (strain Armstrong)
MEASURE NAME: Kd

Input: Identify the measured Kd of YCNYSKFWY for HLA-A*01:01.
Output: ≥ 21.2 µM

---

Biological target: HLA-B*40:01
Experiment: IEDB peptide-MHC binding, purified MHC/direct/fluorescence; filed as Kd, often an IC50 or EC50 that approximates it; bounds were set here for any values at or beyond the usual limits of such assays
Details: source organism: Mycobacterium tuberculosis variant bovis BCG str. Pasteur 1173P2
MEASURE NAME: pKd
Would you please state pKd, meaning minus log10 of the concentration in mol/L, as a bare number?

Input: Which pKd is listed for QETWTRLVL ?
Output: 7.41

---

Biological target: HLA-B*44:03
Assay: IEDB peptide-MHC binding, purified MHC/competitive/fluorescence; bounds were set here for any values at or beyond the usual limits of such assays
Details: source organism: Tarsius lariang
pIC50: −log10 of the molar value.
MEASURE NAME: pIC50

Input: Which pIC50 is listed for TEAEKWPFF ?
Output: ≤ 4.70

---

Molecular target: HLA-B*07:02
Test: IEDB peptide-MHC binding, purified MHC/direct/fluorescence; filed as Kd, often an IC50 or EC50 that approximates it; bounds were set here for any values at or beyond the usual limits of such assays
Conditions: source organism: Escherichia coli O157:H7
pKd: −log10 of the molar value.
MEASURE NAME: pKd

Input: Which pKd is listed for YLGTPNNTY ?
Output: ≤ 4.70

---

Molecular target: HLA-A*02:06
Assay: IEDB peptide-MHC binding, purified MHC/competitive/fluorescence; filed as Kd, often an IC50 or EC50 that approximates it; bounds were set here for any values at or beyond the usual limits of such assays
Settings: source organism: Escherichia coli
MEASURE NAME: pKd
Would you please state pKd, meaning minus log10 of the concentration in mol/L, as a bare number?

Input: Which pKd is listed for LMQWWSDYV ?
Output: 8.55

---

Target: HLA-A*11:01
Experiment: IEDB peptide-MHC binding, purified MHC/competitive/radioactivity; filed as Kd, often an IC50 or EC50 that approximates it; bounds were set here for any values at or beyond the usual limits of such assays
Conditions: source organism: Mammarenavirus juninense
Below, each entry is listed alongside its reported Kd.

[[record]]
primary_sequence = "KCFGNTAVAK"
measure_name = "Kd"
value_observed = "6.46 µM"


Input: Which Kd is listed for VCFHEFLSSK ?
Output: 4.5 µM

---

Biological target: HLA-B*44:03
Experiment: IEDB peptide-MHC binding, purified MHC/competitive/radioactivity; filed as Kd, often an IC50 or EC50 that approximates it; bounds were set here for any values at or beyond the usual limits of such assays
Conditions: source organism: Dengue virus 3 Sri Lanka/1266/2000
MEASURE NAME: Kd (nM)
Report as a plain number; the unit nM is understood.

Input: Which Kd is listed for MEITAEWLW ?
Output: 9.15

---

Target: HLA-B*07:02
Experiment: IEDB peptide-MHC binding, purified MHC/direct/fluorescence; filed as Kd, often an IC50 or EC50 that approximates it; bounds were set here for any values at or beyond the usual limits of such assays
Details: source organism: Vibrio vulnificus
MEASURE NAME: Kd

[[record]]
primary_sequence = "DFPIFNQRY"
measure_name = "Kd"
value_observed = "≥ 20 µM"


Next item in the queue.
Input: Which Kd is listed for LLTQSNAGF ?
Output: ≥ 20 µM

---

Target: HLA-B*15:17
Assay: IEDB peptide-MHC binding, purified MHC/competitive/fluorescence; filed as Kd, often an IC50 or EC50 that approximates it; bounds were set here for any values at or beyond the usual limits of such assays
Conditions: source organism: Salmonella enterica subsp. enterica serovar Typhimurium str. LT2
pKd: −log10 of the molar value.
MEASURE NAME: pKd

Input: Which pKd is listed for FPASHMATY ?
Output: ≤ 4.70

---

Target: HLA-B*57:01
Assay: IEDB peptide-MHC binding, purified MHC/competitive/fluorescence; filed as Kd, often an IC50 or EC50 that approximates it; bounds were set here for any values at or beyond the usual limits of such assays
Conditions: source organism: Zaire ebolavirus
Below, each entry is listed alongside its reported Kd.

[[record]]
primary_sequence = "SQVRVPTVF"
value_observed = "≥ 20 µM"


Next item in the queue.
Input: Identify the measured Kd of IFLKPDETF for HLA-B*57:01.
Output: ≥ 20 µM

---

Target: HLA-B*08:01
Assay: IEDB peptide-MHC binding, purified MHC/competitive/radioactivity; filed as Kd, often an IC50 or EC50 that approximates it; bounds were set here for any values at or beyond the usual limits of such assays
Settings: source organism: Vaccinia virus WR
Could you please classify the records by Kd using these ranges: low class (below 5 nM), middle class (5 nM to below 80 nM), high class (80 nM or more)

Input: Record SGMVFTSPV — which class?
Output: middle class

Input: Record LMFKHLLHP — which class?
Output: low class

Input: Record FNKDIFVSL — which class?
Output: high class

---

Target: HLA-A*02:11
Assay: IEDB peptide-MHC binding, purified MHC/direct/fluorescence; filed as Kd, often an IC50 or EC50 that approximates it; bounds were set here for any values at or beyond the usual limits of such assays
Conditions: source organism: Rickettsia bellii OSU 85-389
pKd: −log10 of the molar value.
MEASURE NAME: pKd

Input: Which pKd is listed for AKIALAVYK ?
Output: ≤ 4.70

---

Target: HLA-B*07:02
Test: IEDB peptide-MHC binding, purified MHC/competitive/fluorescence; filed as Kd, often an IC50 or EC50 that approximates it; bounds were set here for any values at or beyond the usual limits of such assays
Conditions: source organism: Escherichia coli O139:H28 str. E24377A
MEASURE NAME: Kd (nM)
Report as a plain number; the unit nM is understood.

Input: Which Kd is listed for LPRDASQIT ?
Output: 97.4

---

Molecular target: HLA-A*24:02
Experiment: IEDB peptide-MHC binding, purified MHC/competitive/radioactivity; filed as Kd, often an IC50 or EC50 that approximates it; bounds were set here for any values at or beyond the usual limits of such assays
Settings: source organism: SARS coronavirus Tor2
pKd: −log10 of the molar value.
pKd below 7 gives No; pKd at or above it gives Yes.

The following sequences have reported results that may help.
[[record]]
primary_sequence = "HISRQRLTKY"
class_name = "No"

[[record]]
primary_sequence = "LYNSTFFSTF"
class_name = "Yes"

[[record]]
primary_sequence = "GYQPYRVVVL"
class_name = "No"

[[record]]
primary_sequence = "MEAQFLYLY"
class_name = "No"

[[record]]
primary_sequence = "QWSLFFFVY"
class_name = "No"

[[record]]
primary_sequence = "DSFKEELDKY"
class_name = "No"


Input: Decide: pKd of GMEAQFLYLY >= 7?
Output: No

Input: Decide: pKd of NYMPYVFTLL >= 7?
Output: Yes
